System: K562 SF3B1 K700E vs K562 SF3B1 WT
MEASUREMENT_PROTOCOL: surviving fraction ratio K562 SF3B1 K700E / K562 SF3B1 WT (each relative to DMSO); higher = less selective killing of SF3B1 K700E cells
MEASUREMENT_CONDITIONS: 10nM; 5 days
Listed here: items and their measured surviving fraction ratio K562 SF3B1 K700E / K562 SF3B1 WT.
READOUT: surviving fraction ratio K562 SF3B1 K700E / K562 SF3B1 WT

{"COMPOUND": "Nc1ncn([C@H]2C[C@H](O)[C@@H](CO)O2)c(=O)n1", "ASSAYED_TARGET": "K562 SF3B1 K700E vs K562 SF3B1 WT", "EXPERIMENTAL_RESULT": 0.665}
{"COMPOUND": "COc1cc([C@@H]2c3cc4c(cc3[C@@H](O[C@@H]3O[C@@H]5CO[C@@H](C)O[C@H]5[C@H](O)[C@H]3O)[C@H]3COC(=O)[C@H]23)OCO4)cc(OC)c1O [etoposide]", "ASSAYED_TARGET": "K562 SF3B1 K700E vs K562 SF3B1 WT", "EXPERIMENTAL_RESULT": 0.771}
{"COMPOUND": "Cc1nc(Nc2n[nH]c3c2CN(C(=O)N[C@H](CN(C)C)c2ccccc2)C3(C)C)c2sccc2n1", "ASSAYED_TARGET": "K562 SF3B1 K700E vs K562 SF3B1 WT", "EXPERIMENTAL_RESULT": 1.34}
{"COMPOUND": "CN(Cc1cnc2nc(N)nc(N)c2n1)c1ccc(C(=O)N[C@@H](CCC(=O)O)C(=O)O)cc1 [methotrexate]", "ASSAYED_TARGET": "K562 SF3B1 K700E vs K562 SF3B1 WT", "EXPERIMENTAL_RESULT": 2.8}
{"COMPOUND": "CS(=O)(=O)c1ccc(C(=O)Nc2ccc(Cl)c(-c3ccccn3)c2)c(Cl)c1", "ASSAYED_TARGET": "K562 SF3B1 K700E vs K562 SF3B1 WT", "EXPERIMENTAL_RESULT": 0.872}
{"COMPOUND": "COc1ccc(-c2cc3c(C)nc(N)nc3n([C@H]3CC[C@H](OCCO)CC3)c2=O)cn1", "ASSAYED_TARGET": "K562 SF3B1 K700E vs K562 SF3B1 WT", "EXPERIMENTAL_RESULT": 1}

====

Listed here: items and their measured surviving fraction ratio K562 SF3B1 K700E / K562 SF3B1 WT.
System: K562 SF3B1 K700E vs K562 SF3B1 WT
MEASUREMENT_PROTOCOL: surviving fraction ratio K562 SF3B1 K700E / K562 SF3B1 WT (each relative to DMSO); higher = less selective killing of SF3B1 K700E cells
MEASUREMENT_CONDITIONS: 1nM; 5 days
READOUT: surviving fraction ratio K562 SF3B1 K700E / K562 SF3B1 WT

{"MOLECULE": "CC(=O)c1c(C)c2cnc(Nc3ccc(N4CCNCC4)cn3)nc2n(C2CCCC2)c1=O", "EXPERIMENTAL_RESULT": 0.89}
{"MOLECULE": "CCC1=C[C@@H]2CN(C1)Cc1c([nH]c3ccccc13)[C@@](C(=O)OC)(c1cc3c(cc1OC)N(C)[C@H]1[C@@](O)(C(=O)OC)[C@H](OC(C)=O)[C@]4(CC)C=CCN5CC[C@]31[C@@H]54)C2 [vinorelbine]", "EXPERIMENTAL_RESULT": 0.921}
{"MOLECULE": "Oc1nc(-c2ccc(C(F)(F)F)cc2)nc2c1CSCC2", "EXPERIMENTAL_RESULT": 0.906}

====

System: K562 SF3B1 K700E vs K562 SF3B1 WT
MEASUREMENT_PROTOCOL: surviving fraction ratio K562 SF3B1 K700E / K562 SF3B1 WT (each relative to DMSO); higher = less selective killing of SF3B1 K700E cells
MEASUREMENT_CONDITIONS: 0.5nM; 5 days
Give Yes when the value for surviving fraction ratio K562 SF3B1 K700E / K562 SF3B1 WT is at least 0.8. Give No when it is less.

{"MOLECULAR_STRING": "CCc1cc(Nc2nccc(-c3c(-c4ccc(OC)c(C(=O)Nc5c(F)cccc5F)c4)nc4ccccn34)n2)c(OC)cc1N1CCC(N2CCN(S(C)(=O)=O)CC2)CC1", "CLASS": "Yes"}
{"MOLECULAR_STRING": "O=C(NOCC1CC1)c1ccc(F)c(F)c1Nc1ccc(I)cc1Cl", "CLASS": "Yes"}
{"MOLECULAR_STRING": "COc1cc2c(cc1O)CC[C@@H]1[C@@H]2CC[C@]2(C)[C@@H](O)CC[C@@H]12", "CLASS": "No"}
{"MOLECULAR_STRING": "Nc1ncn([C@H]2C[C@H](O)[C@@H](CO)O2)c(=O)n1", "CLASS": "No"}
{"MOLECULAR_STRING": "COc1cc2ncnc(Nc3ccc(F)c(Cl)c3)c2cc1OCCCN1CCOCC1", "CLASS": "No"}
{"MOLECULAR_STRING": "CO[C@H]1C[C@@H]2CC[C@@H](C)[C@@](O)(O2)C(=O)C(=O)N2CCCC[C@H]2C(=O)O[C@H]([C@H](C)C[C@@H]2CC[C@@H](OCCO)[C@H](OC)C2)CC(=O)[C@H](C)/C=C(\\C)[C@@H](O)[C@@H](OC)C(=O)[C@H](C)C[C@H](C)/C=C/C=C/C=C/1C", "CLASS": "No"}
{"MOLECULAR_STRING": "NC1(c2ccc(-c3nc4ccn5c(=O)[nH]nc5c4cc3-c3ccccc3)cc2)CCC1", "CLASS": "Yes"}
{"MOLECULAR_STRING": "Cn1c(=O)n(-c2ccc(C(C)(C)C#N)cc2)c2c3cc(-c4cnc5ccccc5c4)ccc3ncc21", "CLASS": "Yes"}

====

System: K562 SF3B1 K700E vs K562 SF3B1 WT
MEASUREMENT_PROTOCOL: surviving fraction ratio K562 SF3B1 K700E / K562 SF3B1 WT (each relative to DMSO); higher = less selective killing of SF3B1 K700E cells
MEASUREMENT_CONDITIONS: 1000nM; 5 days
READOUT: surviving fraction ratio K562 SF3B1 K700E / K562 SF3B1 WT

{"MOLECULAR_STRING": "CN(C)C/C=C/C(=O)Nc1cc2c(Nc3ccc(F)c(Cl)c3)ncnc2cc1O[C@H]1CCOC1", "EXPERIMENTAL_RESULT": 0.915}
{"MOLECULAR_STRING": "CCN(CC)CCCCNc1ncc2cc(-c3cc(OC)cc(OC)c3)c(NC(=O)NC(C)(C)C)nc2n1", "EXPERIMENTAL_RESULT": 0.89}
{"MOLECULAR_STRING": "COc1ccc(C2=N[C@@H](c3ccc(Cl)cc3)[C@@H](c3ccc(Cl)cc3)N2C(=O)N2CCNC(=O)C2)c(OC(C)C)c1", "EXPERIMENTAL_RESULT": 0.894}
{"MOLECULAR_STRING": "CCn1c(C(=O)N(C2CC2)C2CC2)cc2c3c(ncn3C)c(Nc3cc(C)n(C)n3)nc21", "EXPERIMENTAL_RESULT": 0.893}

====

Tested on: K562 SF3B1 K700E vs K562 SF3B1 WT
MEASUREMENT_PROTOCOL: surviving fraction ratio K562 SF3B1 K700E / K562 SF3B1 WT (each relative to DMSO); higher = less selective killing of SF3B1 K700E cells
MEASUREMENT_CONDITIONS: 1nM; 5 days
READOUT: surviving fraction ratio K562 SF3B1 K700E / K562 SF3B1 WT

{"COMPOUND": "O=C(c1cc(Cc2n[nH]c(=O)c3ccccc23)ccc1F)N1CCN(C(=O)C2CC2)CC1", "EXPERIMENTAL_RESULT": 0.979}
{"COMPOUND": "CC(=O)O[C@H]1C(=O)[C@@]2(C)[C@H]([C@H](OC(=O)c3ccccc3)[C@]3(O)C[C@H](OC(=O)[C@H](O)[C@@H](NC(=O)c4ccccc4)c4ccccc4)C(C)=C1C3(C)C)[C@]1(OC(C)=O)CO[C@@H]1C[C@@H]2O", "EXPERIMENTAL_RESULT": 0.99}
{"COMPOUND": "COc1cc([C@@H]2c3cc4c(cc3[C@@H](O[C@@H]3O[C@@H]5CO[C@@H](C)O[C@H]5[C@H](O)[C@H]3O)[C@H]3COC(=O)[C@H]23)OCO4)cc(OC)c1O [etoposide]", "EXPERIMENTAL_RESULT": 0.974}
